Tested on: TK-10
protocol_details: NCI tumour cell line growth inhibition, 48 h
The source made the active and inactive calls. Cut-off read from the data, not from the text of the source: active = GI50 up to about 1.1 µM and inactive = higher.
Catalogue of GI50 readings, one per entry.

See these solved cases before continuing.
>  <compound>
NC(CSC(c1ccccc1)(c1ccccc1)c1ccccc1)C(=O)O (centres undefined)

>  <target_entity>
TK-10

>  <measured_result>
19.9 µM (inactive)

$$$$
>  <compound>
Cn1c(=O)c2sc3cc4c(cc3c2c2ccccc21)sc1c(=O)n(C)c2ccccc2c14

>  <target_entity>
TK-10

>  <measured_result>
> 100 µM (inactive)

$$$$
>  <compound>
COc1ccc(C(=C(Cl)c2ccccc2)c2ccc(OC)cc2)cc1

>  <target_entity>
TK-10

>  <measured_result>
> 100 µM (inactive)

$$$$
>  <compound>
O=C1NC(=S)NC(=O)C1=CC1CC1

>  <target_entity>
TK-10

>  <measured_result>
> 100 µM (inactive)

$$$$
>  <compound>
Clc1ccc(CSC2=NCCN2)cc1Cl

>  <target_entity>
TK-10

>  <measured_result>
16.7 µM (inactive)

$$$$
>  <compound>
CCCCCCCCCCCCCC1=C(O)C(=O)C(CC2=C(O)C(=O)C(CCCCCCCCCCCCC)=C(O)C2=O)=C(O)C1=O

>  <target_entity>
TK-10

>  <measured_result>
61.4 µM (inactive)

$$$$
>  <compound>
C[C@]12CCC(=O)C=C1CC[C@@H]1[C@@H]2[C@@H](O)C[C@@]2(C)[C@H]1CC[C@]2(O)C(=O)COC(=O)CCC1CCCC1 [HYDROCORTISONE CYPIONATE]

>  <target_entity>
TK-10

>  <measured_result>
> 100 µM (inactive)

$$$$
>  <compound>
CCOC(=O)C1=C(OC(OCC)C(C)[Se]c2ccccc2)CCC1 (centres undefined)

>  <target_entity>
TK-10

>  <measured_result>
> 100 µM (inactive)

$$$$

Next compound, please.
### Prompt Recorded GI50 for COc1cc(-c2cc(=O)c3cc4c(=O)cc(-c5cc(OC)c(OC)c(OC)c5)oc4cc3o2)cc(OC)c1OC , please?
### Response 16.3 µM (inactive)

* * *

Tested on: T47D
protocol_details: NCI tumour cell line growth inhibition, 48 h
Calls of active or inactive are those of the source. Cut-off read from the data, not from the text of the source: active = GI50 up to about 1.1 µM and inactive = higher.
Catalogue of GI50 values

Worked set:
>  <structure>
CN(CCCNC(=O)c1nn(-c2ccc(Cl)cc2Cl)c2c1Cc1ccccc1-2)CCCNC(=O)c1nn(-c2ccc(Cl)cc2Cl)c2c1Cc1ccccc1-2

>  <endpoint>
GI50

>  <measured_result>
1920 nM (inactive)

$$$$
>  <structure>
O=C1C(Cl)=C(N2CCC[C@@H]2CO)C(=O)c2c(O)ccc(O)c21

>  <endpoint>
GI50

>  <measured_result>
1780 nM (inactive)

$$$$
>  <structure>
O=C(O)c1c2c(cc3c1CC1(Cc4ccccc4C1)C3)CCC2

>  <endpoint>
GI50

>  <measured_result>
77100 nM (inactive)

$$$$

Next up:
### Prompt Query the reported GI50 for T47D; item: Cc1cn([C@@H]2O[C@H](CO[Si](C)(C)C(C)(C)C)[C@]3(O[C@H]3C(=O)NN)[C@H]2O[Si](C)(C)C(C)(C)C)c(=O)[nH]c1=O
### Response 2360 nM (inactive)

* * *

Tested on: SN12C
protocol_details: NCI tumour cell line growth inhibition, 48 h
Calls of active or inactive are those of the source. No stated cut-off is given here; in the data, active = GI50 up to about 1.1 µM and inactive = higher.
endpoint: GI50

>  <molecule>
O=C1NC(=O)C2(CCC(O)C2)c2cc[n+]([O-])cc21 (stereo unspecified)

>  <GI50>
> 100 µM (inactive)

$$$$

### Prompt Kindly state the measured GI50 obtained for CCCNC1=C(C(=O)OCC)C(=O)CO1 with SN12C.
### Response > 100 µM (inactive)

### Prompt Hello, I am looking for reported GI50 with SN12C for NN/C(=N\S(=O)(=O)c1cc2ccccc2o1)Nc1ccc(Cl)cc1 . Could you help?
### Response > 100 µM (inactive)

* * *

System: SW-620
protocol_details: NCI tumour cell line growth inhibition, 48 h
Calls of active or inactive are those of the source. No stated cut-off is given here; in the data, active = GI50 up to about 1.1 µM and inactive = higher.
endpoint: GI50

>  <molecule>
Oc1ccc(C(O)(c2ccccc2)c2ccccc2)c2ccccc12

>  <GI50>
2.64 µM (inactive)

$$$$
>  <molecule>
O=c1c2cccnc2[nH]c2ccc3[nH]ncc3c12

>  <GI50>
> 10 µM (inactive)

$$$$
>  <molecule>
O=C(CCCCCCC(=O)Nc1cccnc1)NO [PYROXAMIDE]

>  <GI50>
3.4 µM (inactive)

$$$$
>  <molecule>
O=C1NC(=O)C2(CCC(O)C2)c2cc[n+]([O-])cc21 (stereo unspecified)

>  <GI50>
> 100 µM (inactive)

$$$$
>  <molecule>
N#CC(C(=O)/C(=N/NC(=O)c1ccccc1O)C(C#N)c1ccc(Cl)cc1)c1ccc(Cl)cc1 (stereo unspecified)

>  <GI50>
15.2 µM (inactive)

$$$$

Please examine the following record next.
### Prompt # GI50 lookup, item COc1cc2c(cc1OC)C1Cc3ccccc3CCN1CC2 (stereo unspecified)
### Response > 100 µM (inactive)

* * *

Tested on: 786-0
protocol_details: NCI tumour cell line growth inhibition, 48 h
The source made the active and inactive calls. No stated cut-off is given here; in the data, active = GI50 up to about 1.1 µM and inactive = higher.
Field 'call' accepts active, inactive

### Prompt Could you kindly confirm the outcome this assay logged for CC1(C)[C@@H](Cn2cc(I)c(=O)[nH]c2=O)CC[C@@]1(C)CO ?
### Response inactive

### Prompt Field: outcome | Entry: COC(=O)NC(Nc1ccc(Cl)cc1Cl)(C(F)(F)F)C(F)(F)F
### Response inactive

### Prompt I would be grateful if you could indicate the recorded call for COC1C(O)C(C)OC(OC2C(Oc3cccc4c(O)c5c(=O)oc6ccc(C)c7c(=O)oc(c34)c5c67)OC(C)C(O)C2O)C1O (centres undefined) .
### Response active

### Prompt Tell me the recorded outcome of this test for O=C(Nc1cccc([N+](=O)[O-])c1)/C(=N\NC(=O)c1ccncc1)c1nc2ccc([N+](=O)[O-])cc2nc1O .
### Response inactive

* * *

Test system: UACC-62
protocol_details: NCI tumour cell line growth inhibition, 48 h
Activity calls are given as the source filed them. Rule as the data show it: active = GI50 up to about 1.1 µM and inactive = higher.
The molecules listed here are annotated with their GI50.

>  <molecule>
NS(=O)(=O)OCCCCCCCOS(N)(=O)=O

>  <target_entity>
UACC-62

>  <GI50>
61.4 µM (inactive)

$$$$

### Prompt What measured GI50 goes with O=c1c2cc([N+](=O)[O-])cnc2sn1-c1ccc(Oc2ccccc2)cc1 ?
### Response 41.7 µM (inactive)

### Prompt For the molecule shown here, CSc1ccc2c(cc1=O)C(NC(=O)c1ccccc1)CCc1cc(O)c(O)c(O)c1-2 (stereo unspecified) , give the reported GI50.
### Response 5.05 µM (inactive)

### Prompt Entry Cn1c(NN)nc(-c2ccc([N+](=O)[O-])cc2)c(C#N)c1=O has what GI50?
### Response 15.6 µM (inactive)

### Prompt Param item = COc1ccc(C(=C(Cl)c2ccccc2)c2ccc(OC)cc2)cc1 ; retrieve measured GI50.
### Response > 100 µM (inactive)

### Prompt What measured GI50 goes with CC1(O)CC23CC(O)C4(O)C(CC(O)C4(C)C)C(C)(O)C2CCC1C3O (stereo unspecified) ?
### Response > 100 µM (inactive)

* * *

Tested on: NCI-H23
protocol_details: NCI tumour cell line growth inhibition, 48 h
The source made the active and inactive calls. Rule as the data show it: active = GI50 up to about 1.1 µM and inactive = higher.
The reply should be one of these categories: active, inactive

>  <compound>
O=c1ss/c(=N\c2ccccc2)n1-c1ccccc1

>  <class_name>
inactive

$$$$

### Prompt Could you please tell me the result logged for O=C1c2c(O)cccc2C(C(=O)CCCC(=O)C2c3cccc(O)c3C(=O)c3c(O)cccc32)c2cccc(O)c21 in this assay?
### Response active

### Prompt What was the test verdict on CCN(CC)C(=O)CCNC(C)Cc1c[nH]c2ccccc12 (stereo not given) ?
### Response inactive

### Prompt Please indicate how the test categorized CO[C@@H]1C=C[C@@]23c4cc5c(cc4C(=O)O[C@H]2CN(C)[C@H]3C1)OCO5 .
### Response inactive

### Prompt Given CCCCOc1ccc(S(=O)(=O)/N=C(\NN)Nc2ccc(Cl)cc2)cc1 , state the outcome it received in this test.
### Response inactive

### Prompt // param item: O=C1/C(=C/c2cccc([N+](=O)[O-])c2)COc2ccc(Br)cc21 ; yields the recorded call
### Response inactive

### Prompt Per the assay record, what outcome was assigned to CC(=O)OC1CC2C(C)(C)C(=O)C=C[C@]2(C)C2CCC3(C)C(=CC(=O)C3c3ccoc3)[C@]12C (stereo not given in full) ?
### Response inactive

### Prompt How was NNC(=O)c1c(Cl)c(Cl)c(Cl)c(Cl)c1-c1nc2ccccc2[nH]1 classified in this test?
### Response inactive

### Prompt Look up the recorded call for C[N+](C)(C)CC(=O)N/N=C(/Cc1nc2ccc(Cl)cc2nc1O)C1=NS(=O)(=O)c2cc(S(N)(=O)=O)c(Cl)cc2N1 in this test.
### Response inactive

### Prompt Which outcome did this test record for the compound O=c1c2cc(O)ccc2n2nnc3ccc(NCCNCCO)c1c32 ?
### Response inactive
